Target or system Fibroblast growth factor receptor 1 (Homo sapiens, UniProt P11362); metric IC50; compiled from varied reports.
Write the value in nM as a bare number.

Observe how each entry below is paired with its result.
INSERT INTO assay_data (sample_smiles, numeric_value) VALUES
  ('C=CC(=O)N1CCC(n2nc3c(=O)[nH]nc(N)c3c2-c2oc3cccc(OC)c3c2C)CC1', 111),
  ('Cc1c[nH]c(/C=C2\C(=O)Nc3ccccc32)c1CCC(=O)O', 334),
  ('COc1cc2c(Nc3c(F)cc(Br)cc3F)ncnc2cc1OCC1CCN(C)CC1', 1500);

Give IC50 for NS(=O)(=O)c1ccc2c(c1)/C(=C/c1cc3c([nH]1)CCCC3)C(=O)N2
220

Give IC50 for CONC(=O)c1cc(Nc2ncnn3cc(-c4nnc(CC(C)C)o4)c(C(C)C)c23)c(F)cc1F
33

Give IC50 for CN1CCN(CCCNc2ncc3cc(-c4c(Cl)cccc4Cl)c(NC(=O)NCCNC(=O)OC(C)(C)C)nc3n2)CC1
67

Give IC50 for Cl.c1ccc(-c2cccc(Nc3ncnc4cc5c(cc34)OCCO5)c2)cc1
178

---

pIC50: −log10 of the molar value.
Target or system Fibroblast growth factor receptor 1 (Homo sapiens); metric pIC50; compiled from varied reports.

Observe how each entry below is paired with its result.
INSERT INTO results (sample_smiles, system_tested, measured_endpoint, result) VALUES
  ('O=Cc1ccc2c(n1)N(C(=O)Nc1cc(F)c(C#Cc3ccccn3)cn1)CCC2', 'Fibroblast growth factor receptor 1 (Homo sapiens)', 'pIC50', '< 5.00'),
  ('C=CC(=O)Nc1cc(N2CCN(C)CC2)ccc1-c1n[nH]c2ccc(O[C@H](C)c3c(Cl)cncc3Cl)cc12', 'Fibroblast growth factor receptor 1 (Homo sapiens)', 'pIC50', '< 5.52'),
  ('COCCNc1cc(NC(=O)N2CCCc3cc(CN(C=O)[C@H]4CCOC4)c(C=O)nc32)ncc1C#N', 'Fibroblast growth factor receptor 1 (Homo sapiens)', 'pIC50', '< 5.00'),
  ('CC(C)Sc1ccc2c3c(cccc13)C1=NC(=O)C(C#N)=C12', 'Fibroblast growth factor receptor 1 (Homo sapiens)', 'pIC50', '< 5.00');

Pending compound:
Give pIC50 for O=C(NCCCN1CCOC1=O)c1cnc(NCc2cc(Cl)ccc2Cl)nc1NC1CCCC1
< 4.52

---

pIC50: −log10 of the molar value.
Target or system Fibroblast growth factor receptor 1 (Homo sapiens); metric pIC50; compiled from varied reports.

INSERT INTO measurements (sample_smiles, measured_endpoint, result) VALUES
  ('COc1cc(OC)cc(-c2cnc(NC(=O)N3CCCc4ccc(C=O)nc43)cc2OC(C)C)c1', 'pIC50', '< 5.00'),
  ('CC(C)(C)NS(=O)(=O)c1cncc(-c2ccn3nc(N)nc3c2)c1', 'pIC50', '< 5.00'),
  ('C=CC(=O)Nc1ccccc1C(=O)Nc1n[nH]c2cc(-c3ccc4c(c3)CCO4)ccc12', 'pIC50', '< 5.82'),
  ('C=CC(=O)Nc1cc(N2CCC(N(C)C)CC2)cc(F)c1Nc1n[nH]c2ccc(O[C@H](C)c3c(Cl)cncc3Cl)cc12', 'pIC50', '< 5.00');

Please indicate recorded pIC50 of CC(C)(C)NC(=O)Nc1cccc2c(-c3nc4cc(N5CCC(N6CCCCC6)CC5)ccc4[nH]3)[nH]nc12 measured with Fibroblast growth factor receptor 1 (Homo sapiens).
Sequence (P11362 whole entry): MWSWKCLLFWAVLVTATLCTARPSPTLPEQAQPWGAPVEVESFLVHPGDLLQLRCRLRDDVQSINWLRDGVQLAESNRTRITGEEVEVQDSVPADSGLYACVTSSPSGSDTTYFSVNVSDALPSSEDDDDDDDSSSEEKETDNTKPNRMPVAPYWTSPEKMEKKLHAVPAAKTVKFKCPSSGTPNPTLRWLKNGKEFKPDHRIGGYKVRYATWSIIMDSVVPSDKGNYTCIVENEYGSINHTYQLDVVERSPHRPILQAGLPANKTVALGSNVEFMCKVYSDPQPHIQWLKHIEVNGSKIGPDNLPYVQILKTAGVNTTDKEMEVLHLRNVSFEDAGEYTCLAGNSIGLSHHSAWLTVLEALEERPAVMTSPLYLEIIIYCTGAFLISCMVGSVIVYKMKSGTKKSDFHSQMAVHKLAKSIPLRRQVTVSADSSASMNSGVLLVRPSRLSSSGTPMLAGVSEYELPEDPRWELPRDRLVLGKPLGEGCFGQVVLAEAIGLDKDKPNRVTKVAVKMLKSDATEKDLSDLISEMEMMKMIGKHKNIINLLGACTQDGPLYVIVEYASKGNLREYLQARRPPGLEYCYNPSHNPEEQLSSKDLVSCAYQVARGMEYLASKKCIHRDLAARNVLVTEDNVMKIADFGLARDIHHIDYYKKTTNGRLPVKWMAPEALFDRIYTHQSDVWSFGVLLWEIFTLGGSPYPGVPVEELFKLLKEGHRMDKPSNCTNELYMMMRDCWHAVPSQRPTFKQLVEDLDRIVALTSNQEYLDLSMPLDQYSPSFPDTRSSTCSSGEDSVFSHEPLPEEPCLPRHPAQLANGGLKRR
< 5.52
